Answer each item with its documented ratio IC50 hV2/hV1a.
biological target: human V1a receptor (Homo sapiens); construct: expressed in transfected cells; host or cells: CHO K1 (ATCC), also stably transfected with a modified aequorin; test: Cellular in vitro assay for determining vasopressin receptor activity, V1a receptor cell line (CHO, aequorin luminescence); type: cell-based; details: selectivity ratio IC50 hV2 / IC50 hV1a
Sequence (P37288 whole entry): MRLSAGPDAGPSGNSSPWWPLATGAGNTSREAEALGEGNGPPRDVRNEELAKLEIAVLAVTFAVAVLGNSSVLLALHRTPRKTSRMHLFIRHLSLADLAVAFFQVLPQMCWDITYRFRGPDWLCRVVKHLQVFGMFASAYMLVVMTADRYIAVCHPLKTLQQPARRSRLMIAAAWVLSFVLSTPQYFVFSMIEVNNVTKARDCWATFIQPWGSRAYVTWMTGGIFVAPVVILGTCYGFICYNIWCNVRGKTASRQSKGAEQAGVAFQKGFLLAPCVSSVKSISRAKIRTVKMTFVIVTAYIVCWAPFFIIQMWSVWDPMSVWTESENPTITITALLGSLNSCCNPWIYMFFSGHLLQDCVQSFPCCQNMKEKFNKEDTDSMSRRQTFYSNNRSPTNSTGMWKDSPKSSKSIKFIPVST
Answers are plain numbers.

Below, each entry is followed by its recorded ratio IC50 hV2/hV1a result.
Fill in the recorded ratio IC50 hV2/hV1a for this compound, with human V1a receptor (Homo sapiens) as test system: CS(=O)(=O)CC(=O)Nc1cccnc1-n1cnc(Cn2nc(-c3ccc(Cl)cc3)n(C[C@H](O)C(F)(F)F)c2=O)n1
230.2

// fetch human V1a receptor (Homo sapiens) ratio IC50 hV2/hV1a for Cc1cc(NC(=O)c2ccccc2-n2cnc(Cn3nc(-c4ccc(Cl)cc4)n(C[C@H](O)C(F)(F)F)c3=O)n2)ccn1
297.8

Query ratio IC50 hV2/hV1a on human V1a receptor (Homo sapiens) for CN(CC1CC1)C(=O)c1ncccc1-n1cnc(Cn2nc(-c3ccc(Cl)cc3)n(C[C@@H](O)C(F)(F)F)c2=O)n1
323.2

Identify the measured ratio IC50 hV2/hV1a of O=C1CN(c2nc(Cn3nc(-c4ccc(Cl)cc4)n(C[C@H](O)C(F)(F)F)c3=O)nn2-c2cccnc2C(=O)NCC(F)(F)F)CCN1 for human V1a receptor (Homo sapiens).
12.1

ratio IC50 hV2/hV1a of CC1CCCCN1C(=O)c1ccccc1-n1cnc(Cn2nc(-c3ccc(Cl)cc3)n(C[C@H](O)C(F)(F)F)c2=O)n1 (stereo partly drawn) on human V1a receptor (Homo sapiens)?
383.2

***
Query for human V1a receptor (Homo sapiens): what ratio IC50 hV2/hV1a does the record show for O=C(CC(F)(F)F)Nc1cccnc1-n1cnc(Cn2nc(-c3ccc(Cl)cc3)n(C[C@H](O)C(F)(F)F)c2=O)n1 ?
77.0

Data credit: patent US11173151B2
